Values were extracted from the supplement of paper PMC5998384.

thermal stability score listing for selected sequences.
# System: HeLa Kyoto;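 note: synchronized HeLa Kyoto cells, proteins quantified by TMT10plex mass spectrometry, three biological replicates, mitosis taken 0.5 h after nocodazole release, G1/S directly after double thymidine block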
# assay.overview: thermal stability score vs G1/S (z-score of summed log2 fold changes over temperatures); higher = more thermally stable than in G1/S
# condition.set: cell cycle stage: early G1 (4.5 h after nocodazole release)
endpoint: thermal stability score

{"seq.text": "MVWKRLGALVMFPLQMIYLVVKAAVGLVLPAKLRDLSRENVLITGGGRGIGRQLAREFAERGARKIVLWGRTEKCLKETTEEIRQMGTECHYFICDVGNREEVYQTAKAVREKVGDITILVNNAAVVHGKSLMDSDDDALLKSQHINTLGQFWTTKAFLPRMLELQNGHIVCLNSVLALSAIPGAIDYCTSKASAFAFMESLTLGLLDCPGVSATTVLPFHTSTEMFQGMRVRFPNLFPPLKPETVARRTVEAVQLNQALLLLPWTMHALVILKSILPQAALEEIHKFSGTYTCMNTFKGRT [DHRS3]", "measured.on": "HeLa Kyoto", "measured.number": 0.157}
{"seq.text": "MASILRSPQALQLTLALIKPDAVAHPLILEAVHQQILSNKFLIVRMRELLWRKEDCQRFYREHEGRFFYQRLVEFMASGPIRAYILAHKDAIQLWRTLMGPTRVFRARHVAPDSIRGSFGLTDTRNTTHGSDSVVSASREIAAFFPDFSEQRWYEEEEPQLRCGPVCYSPEGGVHYVAGTGGLGPA [NME6]", "measured.on": "HeLa Kyoto", "measured.number": -2.16}
{"seq.text": "MALPIIVKWGGQEYSVTTLSEDDTVLDLKQFLKTLTGVLPERQKLLGLKVKGKPAENDVKLGALKLKPNTKIMMMGTREESLEDVLGPPPDNDDVVNDFDIEDEVVEVENREENLLKISRRVKEYKVEILNPPREGKKLLVLDVDYTLFDHRSCAETGVELMRPYLHEFLTSAYEDYDIVIWSATNMKWIEAKMKELGVSTNANYKITFMLDSAAMITVHTPRRGLIDVKPLGVIWGKFSEFYSKKNTIMFDDIGRNFLMNPQNGLKIRPFMKAHLNRDKDKELLKLTQYLKEIAKLDDFLDLNHKYWERYLSKKQGQ [UBLCP1]", "measured.on": "HeLa Kyoto", "measured.number": 0.941}
{"seq.text": "MAVNVYSTSVTSDNLSRHDMLAWINESLQLNLTKIEQLCSGAAYCQFMDMLFPGSIALKKVKFQAKLEHEYIQNFKILQAGFKRMGVDKIIPVDKLVKGKFQDNFEFVQWFKKFFDANYDGKDYDPVAARQGQETAVAPSLVAPALNKPKKPLTSSSAAPQRPISTQRTAAAPKAGPGVVRKNPGVGNGDDEAAELMQQVNVLKLTVEDLEKERDFYFGKLRNIELICQENEGENDPVLQRIVDILYATDEGFVIPDEGGPQEEQEEY [MAPRE1]", "measured.on": "HeLa Kyoto", "measured.number": -0.163}
{"seq.text": "MNPTLILAAFCLGIASATLTFDHSLEAQWTKWKAMHNRLYGMNEEGWRRAVWEKNMKMIELHNQEYREGKHSFTMAMNAFGDMTSEEFRQVMNGFQNRKPRKGKVFQEPLFYEAPRSVDWREKGYVTPVKNQGQCGSCWAFSATGALEGQMFRKTGRLISLSEQNLVDCSGPQGNEGCNGGLMDYAFQYVQDNGGLDSEESYPYEATEESCKYNPKYSVANDTGFVDIPKQEKALMKAVATVGPISVAIDAGHESFLFYKEGIYFEPDCSSEDMDHGVLVVGYGFESTESDNNKYWLVKNSWGEEWGMGGYVKMAKDRRNHCGIASAASYPTV [CTSL]", "measured.on": "HeLa Kyoto", "measured.number": 1.47}
